Experiment: acid dissociation constant in a 25° C. aqueous solution (titration method)
Type: physicochemical
Conditions: first constant
result type: acid dissociation constant in a 25° C. aqueous solution 1

* Oc1cc(O)cc(O)c1 | 8.0
* Oc1cccc(O)c1 | 9.3
* Oc1ccccc1O | 9.1
* Oc1cccc(O)c1O | 9.0

###

Test: acid dissociation constant in a 25° C. aqueous solution (titration method)
Format: physicochemical
Details: second constant
result type: acid dissociation constant 2

• Oc1ccccc1O = 12.1
• Oc1cccc(O)c1 = 9.8
• Oc1cc(O)cc(O)c1 = 9.2
• Oc1cccc(O)c1O = 11.6
